System: SN12C renal
Assay Comment: NCI tumour cell line growth inhibition, 48 h
Give measured GI50 for each item. Keep answers brief.

Prompt: Provide value of GI50 for this record tested with SN12C renal: CCc1ccc2c(c1)C(=O)c1c-2n(CCCBr)c(=O)c2cc([N+](=O)[O-])ccc12
Response: > 50 µM

Prompt: Try O=C1NNC(=O)c2ccccc2SSc2ccccc2C(=O)NNC(=O)c2ccccc2SSc2ccccc21 next.
Response: 17 µM

Prompt: Moving on to the next compound: CC(=O)[O][Hg][c]1c(N)c(C)cc(C)c1F
Response: 1.36 µM

Prompt: Please do the same for COc1cc2nc(C)nc(N[C@H](C)c3cc(N)cc(C(F)(F)F)c3)c2cc1O[C@H]1CCOC1 as well.
Response: 6.46 µM

====

Tested on: SR leukemia
Assay Comment: NCI tumour cell line growth inhibition, 48 h
For each record, write down the corresponding TGI.

Prompt: What value of measured TGI is listed for C=CCC1(O)CC(n2cc(C)c(=O)[nH]c2=O)OC1CO[Si](C)(C)C(C)(C)C (stereo not given) ?
Response: > 100 µM

Prompt: Can you check CC1(C)COC(c2ccc(C(F)(F)F)cc2C(O)c2ccc3ccccc3c2)=N1 (stereo not given) next?
Response: > 10 µM

Prompt: Please give the result for CC1OC(OC2C(OC(=O)[C@]34CCC(C)(C)C[C@H]3C3=CC[C@@H]5[C@@]6(C)CC[C@H](OC7OC(C(=O)O)C(O)C(O)C7O)C(C)(C)[C@@H]6CC[C@@]5(C)[C@]3(C)C[C@H]4O)OCC(O)C2O)C(O)C(O)C1OC1OCC(OC2OCC(O)C(O)C2O)C(O)C1O (stereo not given in full) too.
Response: 53.9 µM

Prompt: And O=c1n(CC2CO2)c(=O)n(CC2CO2)n1CC1CO1 (stereo not given) ?
Response: > 100 µM

Prompt: Another compound to check: CC(=O)Nc1oc(C)c(C)c1S(=O)(=O)c1ccc(Cl)cc1
Response: > 100 µM

Prompt: Next up: Cc1ccc(N=N/C(=N/NC(=O)c2cc(Cl)ccc2O)c2ccc(N(CCC#N)CCC#N)cc2C)cc1
Response: > 100 µM

Prompt: Similarly, O=C(O)CCSC(=O)Nc1cccc(F)c1 ?
Response: > 100 µM

Prompt: Further, for Cc1cc2nc(C(Cl)Cl)nc(-c3ccc(Cl)cc3)n2n1 ?
Response: > 21.1 µM

Prompt: What about this compound? COc1cc(NC(C)c2ccc3c(c2)OCCO3)cc(OC)c1OC (stereo not given)
Response: > 100 µM

Prompt: What would you report for Cc1nc2c(nc1C)C(=O)c1ccccc1C2=O ?
Response: 28.2 µM

Prompt: Here is the next compound: O=C1C=Cc2c(Br)sc(Br)c21
Response: 75.2 µM

Prompt: How about this compound: COc1ccc(C2=CSc3cc(Cl)c(C)cc3S(=O)(=O)N2C(C)=O)cc1
Response: > 100 µM

Prompt: Now the compound O=C(Nc1ccc(F)cc1F)c1cc(I)ccc1O
Response: > 100 µM

Prompt: Here is the next compound: CCOc1ccccc1-n1c(CN2CCN(C(=O)COc3ccc(CNCCCCCCN4C5CCCC4CC(OC(=O)Nc4cc(C)ccc4OC)C5)cc3)CC2)nc2ccccc2c1=O (stereo not given)
Response: 1.59 µM

Prompt: How about CN(C)c1ccc(-c2cc(-c3ccc(Nc4nc(Nc5ccc(Cl)cc5)nc(Nc5ccc(Cl)cc5)n4)cc3)no2)cc1 ?
Response: 1.74 µM
